- System: UO-31 renal
- Experiment description: NCI-60 one-dose screen, 48 h (100 = growth as untreated, 0 = no growth, -100 = all killed)
- Measurement context: 10 µM unless noted
This is part of a sample that, as a whole, favours compounds with a hit. Of some 83,000 tested, about 20% had one in any assay.
Overview of recorded growth for various molecules
Your answer should be a plain number; it is taken to be in %.

Use the examples below as a reference point.
{"Molecule": "CCCc1cc(=O)oc2c(C(=O)CC(C)C)c(O)c(CC=C(C)C)c(O)c12", "growth / %": 20}
{"Molecule": "Cc1ccc(NC(=O)c2sc3nc(C)c(C(O)c4ccccc4)cc3c2N)cc1 (stereo not given)", "growth / %": 41.6}
{"Molecule": "Cc1ccc(C)c2c1sc1nc(N3CCOCC3)c(C#N)c(=O)n12", "growth / %": 74.9}
{"Molecule": "Cc1ccccc1N1CCN(C(=S)c2ccccc2)CC1", "growth / %": 82.1}

Please fill in: growth reported for O=C(/C=C/C12c3ccccc3C(c3ccccc31)C1C(=O)NC(=O)C12)c1ccco1 (stereo not given) = 42

Entry source: PubChem BioAssay (NCI)
